B1: ATGL (PNPLA2, patatin-like phospholipase domain-containing protein 2), human, full length / perilipin-5, mouse (mPlin5) (parent)
chain 1: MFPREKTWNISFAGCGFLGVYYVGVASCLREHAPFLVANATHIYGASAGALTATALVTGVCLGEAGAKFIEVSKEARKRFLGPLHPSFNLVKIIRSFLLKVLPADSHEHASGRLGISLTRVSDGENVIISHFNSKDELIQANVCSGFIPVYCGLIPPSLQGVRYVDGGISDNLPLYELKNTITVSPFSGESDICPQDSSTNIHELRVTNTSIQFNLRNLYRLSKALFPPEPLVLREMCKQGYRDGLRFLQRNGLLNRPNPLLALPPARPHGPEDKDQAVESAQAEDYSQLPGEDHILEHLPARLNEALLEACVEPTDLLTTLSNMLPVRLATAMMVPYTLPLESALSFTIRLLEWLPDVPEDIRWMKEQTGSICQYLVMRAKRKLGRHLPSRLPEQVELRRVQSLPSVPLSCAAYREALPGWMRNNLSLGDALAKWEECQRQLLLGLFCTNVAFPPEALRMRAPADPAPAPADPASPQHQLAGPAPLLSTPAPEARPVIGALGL
chain 2: MDQRGEDTTLAPHSRMSGDQTAQDPGSSLGELDQQNVVNRVVALPLVKATCTAVSSAYNSAKDRHPLLGSACRLAEHCVCSVTTCALDHAQPLLEHLQPQLATVNDLACRGLDKLEEKLPFLQQPSDMVVTSAKDTVAKSVTGMVDLAQRGRRWSGELRRSMSQAMDMVLGKSEKLVDRFLPMTEAELAVLAAEAEGPEVGTVEEQRQQQGYFVRLGSLSARLRHLAYEHSLGKLRQSKHRTQEMLAQLQETLELIQHMQRGASPSPTFHPPKTQELWGSWSPCLENGRSHSEVELETLALSRSLTLELQNAVDALAGCVRGLPPSAQAKVAEVQRSVDALQATFADAHCLGDVAPTALAEGRGSVARAHACVDEFLDLVLRAMPLPWLVGPFAPILVEQSEPLINLATCVDEVVGDPDPRWAHMDWPAQKRAWEAESADPGGQEAEPPRGQGKHTMMPELDF

- Variants of: B1
- ASSAY METHOD TEXT: LUMIER: Protein A-ATGL variant and firefly luciferase-partner co-expressed in HEK293T, lysates immunoprecipitated on IgG-coated plates, co-precipitated partner measured as luciferase luminescence
- RECORDED CONDITIONS: with perilipin-5, mouse (mPlin5), transient co-transfection, IgG-coated LUMITRAC plates, 2 h at 4 °C, three PBS washes, Bright-Glo luciferase reagent, triplicates per assay, two …, parent: 0.46, not graded, scale: log2 fold change of co-immunoprecipitated luminescence relative to wild-type ATGL within each experiment
METRIC: screen value

Example entries and their recorded answers appear below.
chain 1 A453E	0.52
chain 1 K275A	-0.483
chain 1 G153A	-0.506

P = chain 1 G66L
Q = chain 1 E314A
R = chain 1 S87E
S = chain 1 S158A
Request: Sort the variants on screen value; start with the lowest figure. Please respond with the labels ordered as the question requires.
Response: P, R, S, Q

The measurements presented in this section are drawn from paper PMC10958042.
